Numbers sourced from paper PMC12480552.

experiment: MALDI MSI of brain sections, mouse model of brain metastasis (MDA231-BrM2-831); assay type: in vivo, NCr nude mice; conditions: female, NCr nude (CrTac:NCr-Foxn1nu), mouse, oral, 35 mg/kg; BM mice; mean brain tumor ROI total concentration by MALDI MSI versus terminal plasma total concentration
readout.kind: Kp at 2 h

*Q* Note Kp at 2 h for the compound shown: NC(=O)c1cccc2cn(-c3ccc([C@@H]4CCCNC4)cc3)nc12 [Niraparib]
*A* 0.945

* * *

Please go through the items and note down their Kp at 2 h.
Assay: LC-MS/MS bioanalysis of plasma and brain homogenate, mouse model of brain metastasis (MDA231-BrM2-831)
Assay type: in vivo, NCr nude mice
Conditions: female, NCr nude (CrTac:NCr-Foxn1nu), mouse, brain, oral, all mice (BM and no-BM combined); read-out: Mean Kp, brain
Excerpt: A luciferase-transfected human breast adenocarcinoma cell line (MDA 231-BRM2-831) was used to generate a metastatic brain tumor model in female athymic nude mice. […] NCr nude mice (strain: CrTac: NCr-Foxn1^nu; female; 5–7 weeks old; Taconic Biosciences (Germantown, NY)) were used for these studies. […] The exact tumor size was not measured as an endpoint of this study. […]
Give bare numbers.

input.smiles: NC(=O)c1cccc2cn(-c3ccc([C@@H]4CCCNC4)cc3)nc12
Kp at 2 h: 0.193

From here, focus on the item given below.
*Q* Given the molecule `O=C(c1cc(Cc2n[nH]c(=O)c3ccccc23)ccc1F)N1CCN(C(=O)C2CC2)CC1` , write its reported Kp at 2 h.
*A* 0.036

* * *

assay: MALDI MSI of brain sections, biodistribution in healthy nonhuman primates; details: male, rhesus monkey, brain (coronal Region 2 sections), oral, 6 mg/kg, MALDI MSI Mean Conc. by brain region, NHP-1; Region 2; 3 sections; Fig. 1B
readout.kind: concentration at 4 h

*Q* Quote concentration at 4 h reported for `NC(=O)c1cccc2cn(-c3ccc([C@@H]4CCCNC4)cc3)nc12` please.
*A* 287 ng/g

* * *

test: in vivo; conditions: female, C57BL/6, mouse, brain tumor, oral
readout.kind: concentration at 24 h (ng/g)
Numbers only, in ng/g.

*Q* Look up concentration at 24 h of `NC(=O)c1cccc2cn(-c3ccc([C@@H]4CCCNC4)cc3)nc12` and report it.
*A* 436

* * *

assay: Protein binding by rapid equilibrium dialysis, CD1 mouse brain and plasma; settings: brain homogenate (diluted 1:4 [5×] in PBS), pH 7.4
readout.kind: fraction unbound at 4 h, 1 µM

*Q* Write down fraction unbound at 4 h, 1 µM measured for item `NC(=O)c1cccc2cn(-c3ccc([C@@H]4CCCNC4)cc3)nc12`
*A* 0.0295

* * *

test: MALDI MSI of brain sections, mouse model of brain metastasis (MDA231-BrM2-831); type: in vivo, NCr nude mice; settings: female, NCr nude (CrTac:NCr-Foxn1nu), mouse, whole brain (sections), oral, 35 mg/kg, Brain Metastases; Mouse 3; Fig. 2B; read-out: MALDI MSI Mean Conc., whole brain, individual mouse
readout.kind: concentration at 2 h (ng/g)
One number for each entry, in ng/g.

*Q* Identify the reported concentration at 2 h for the following entry. `NC(=O)c1cccc2cn(-c3ccc([C@@H]4CCCNC4)cc3)nc12`
*A* 540

* * *

assay: in vivo; settings: female, C57BL/6, mouse, contralateral normal brain, oral
Please provide measured concentration at 24 h for the entries that follow.
Could you give the number and then its unit, please?

compound: O=C(c1cc(Cc2n[nH]c(=O)c3ccccc23)ccc1F)N1CCN(C(=O)C2CC2)CC1 [Olaparib]
concentration at 24 h: 8 ng/g

Proceed to the following item.
*Q* Report measured concentration at 24 h; entry is NC(=O)c1cccc2cn(-c3ccc([C@@H]4CCCNC4)cc3)nc12 [Niraparib]
*A* 171 ng/g
